subjectOfTest: M2 muscarinic receptor (Rattus norvegicus)
Construct: Submandibular glands and heart were isolated and placed in ice cold homogenising buffer
Sequence (P10980 1-466): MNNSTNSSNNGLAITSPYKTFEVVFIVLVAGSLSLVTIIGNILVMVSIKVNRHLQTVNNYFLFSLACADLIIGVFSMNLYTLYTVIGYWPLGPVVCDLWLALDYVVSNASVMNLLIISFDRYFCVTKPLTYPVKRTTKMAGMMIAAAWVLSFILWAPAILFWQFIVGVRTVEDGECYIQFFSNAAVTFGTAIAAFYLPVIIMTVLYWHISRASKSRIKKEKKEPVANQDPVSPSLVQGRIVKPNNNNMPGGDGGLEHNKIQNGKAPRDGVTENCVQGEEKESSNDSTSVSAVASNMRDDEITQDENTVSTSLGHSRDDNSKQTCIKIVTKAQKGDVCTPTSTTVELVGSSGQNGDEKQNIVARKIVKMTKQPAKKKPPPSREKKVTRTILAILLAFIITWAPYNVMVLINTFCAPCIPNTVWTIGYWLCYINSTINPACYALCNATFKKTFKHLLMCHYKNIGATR
assaySummary: Radioligand binding assay, [3H]-N-methylscopolamine, rat heart membranes
reportedConditions: [3H]-NMS binding, Ki by Cheng & Prusoff, read-out: M2 pki
pKi: −log10 of the molar value.
Recorded pKi values for a group of compounds are listed next.

Per the record, Cc1c(-c2ccccc2)oc2c(C(=O)NCC34CC3CN(Cc3ccccc3)C4)cccc2c1=O (stereo not drawn) has pKi of < 6.00

Per the record, "Cc1c(-c2ccccc2)oc2c(C(=O)N[C@H]3[C@@H]4CN(Cc5ccccc5)C[C@@H]43)cccc2c1=O" has pKi of < 5.00

Per the record, "Cc1c(-c2ccccc2)oc2c(C(=O)N[C@H]3[C@@H]4CN(Cc5ccc(C#N)cc5)C[C@@H]43)cccc2c1=O" has pKi of < 5.00

* * *

Recorded Ki values for a group of compounds are listed next.
subjectOfTest: M3 muscarinic receptor (Rattus norvegicus)
Construct: Submandibular glands and heart were isolated and placed in ice cold homogenising buffer
Sequence (P08483 whole entry): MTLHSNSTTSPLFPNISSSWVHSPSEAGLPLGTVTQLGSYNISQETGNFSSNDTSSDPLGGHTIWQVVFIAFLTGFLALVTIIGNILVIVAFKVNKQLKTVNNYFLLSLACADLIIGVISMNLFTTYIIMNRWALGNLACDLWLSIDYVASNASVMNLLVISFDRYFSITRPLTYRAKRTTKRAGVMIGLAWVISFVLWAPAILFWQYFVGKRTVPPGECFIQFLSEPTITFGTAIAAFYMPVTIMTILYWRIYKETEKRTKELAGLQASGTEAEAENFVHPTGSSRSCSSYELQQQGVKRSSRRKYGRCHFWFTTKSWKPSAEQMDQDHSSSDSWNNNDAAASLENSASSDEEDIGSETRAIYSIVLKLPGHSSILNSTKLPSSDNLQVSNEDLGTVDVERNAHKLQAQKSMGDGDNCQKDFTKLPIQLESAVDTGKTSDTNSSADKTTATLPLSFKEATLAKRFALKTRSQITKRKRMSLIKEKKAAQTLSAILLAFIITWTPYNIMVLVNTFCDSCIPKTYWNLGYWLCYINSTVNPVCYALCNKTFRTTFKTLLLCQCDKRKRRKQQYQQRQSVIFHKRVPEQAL
assaySummary: Radioligand binding assay, [3H]-N-methylscopolamine, rat submandibular gland membranes
reportedConditions: [3H]-NMS binding, Ki by Cheng & Prusoff, read-out: M3 pki

Measured on M3 muscarinic receptor (Rattus norvegicus), "Cc1c(-c2ccccc2)oc2c(C(=O)N[C@H]3[C@@H]4CN(Cc5ccc(C#N)cc5)C[C@@H]43)cccc2c1=O" has a documented Ki of > 10 µM

Measured on M3 muscarinic receptor (Rattus norvegicus), "Cc1c(-c2ccccc2)oc2c(C(=O)N[C@H]3[C@@H]4CN(Cc5ccccc5)C[C@@H]43)cccc2c1=O" has a documented Ki of > 10 µM

Measured on M3 muscarinic receptor (Rattus norvegicus), Cc1c(-c2ccccc2)oc2c(C(=O)NCC34CC3CN(Cc3ccccc3)C4)cccc2c1=O (stereo not drawn) has a documented Ki of > 1 µM
